# Tested on: ACHN
# assay.summary: NCI tumour cell line growth inhibition, 48 h
Active and inactive are the calls of the source. No stated cut-off is given here; in the data, active = GI50 up to about 1.1 µM and inactive = higher.
The entries below are paired with their reported GI50.

Some compounds with known GI50 results, for comparison:
compound=Cc1c(C(=O)C/C(=N/NC(=O)C[N+](C)(C)C)C(=O)Nc2ccc(Cl)cc2)[n+]([O-])c2ccccc2[n+]1[O-] reported_endpoint=GI50 val="> 100 µM (inactive)"
compound="O=[N+]([O-])c1cc(C2SCc3nc4ccccc4n32)ccc1Cl (stereo not given)" reported_endpoint=GI50 val="27.5 µM (inactive)"
compound=CCOc1ccc2nc3nc(O)nc(C)c3c(NCCCN(CC)CC)c2c1 reported_endpoint=GI50 val="> 100 µM (inactive)"

GI50 for O=C1N(c2ccc(Cl)cc2)C(=O)C2(SC=NN2Cc2ccccc2)N1c1ccc(Cl)cc1 (stereo not given) is > 100 µM (inactive)

GI50 for CC(C)(C)OC(=O)NC1CCCCC1NC(=O)C(=O)NC1CCCCC1NC(=O)OC(C)(C)C (stereo not given) is 39.1 µM (inactive)
